Values were extracted from patent US7868147B2.

Each item that follows carries a reported Maximum fluorescence wavelength.
# Experiment Notes: Maximum excitation and fluorescence wavelength of fluorescein derivatives
# Format: physicochemical
# Assay Setup: measured in 0.1 N aqueous NaOH
Please respond with the number in nm and leave the unit unwritten.

For orientation, consider the following solved cases.
| Structure Notation | Readout Label | U | Readout Number |
| --- | --- | --- | --- |
| COc1ccc(OC)c(-c2c3ccc(=O)cc-3oc3cc(O)ccc23)c1 | Maximum fluorescence wavelength | nm | 512 |
| Cc1ccccc1-c1c2ccc(=O)cc-2oc2cc(O)ccc12 | Maximum fluorescence wavelength | nm | 510 |
| COc1ccc(-c2c3ccc(=O)cc-3oc3cc(O)ccc23)c(OC)c1 | Maximum fluorescence wavelength | nm | 513 |

Documented Maximum fluorescence wavelength of Cc1ccc(C)c(-c2c3ccc(=O)cc-3oc3cc(O)ccc23)c1 : 510

Documented Maximum fluorescence wavelength of Cc1ccc(-c2c3ccc(=O)cc-3oc3cc(O)ccc23)c(C)c1 : 510

Documented Maximum fluorescence wavelength of COc1ccc(-c2c3ccc(=O)cc-3oc3cc(O)ccc23)c(C)c1 : 509

Documented Maximum fluorescence wavelength of COc1ccccc1-c1c2ccc(=O)cc-2oc2cc(O)ccc12 : 515

Documented Maximum fluorescence wavelength of COc1ccc(C)cc1-c1c2ccc(=O)cc-2oc2cc(O)ccc12 : 514
